- experimental system: T1, recombinant human domain 1-3His6 of the cation-independent mannose-6-phosphate receptor (human, UniProt P11717 41-467)
- T1 construct: Biotinylated (NHS-PEG4-biotin) for BLI; Glycosylated; also called hDom1-3His6; hCI-M6PRD1-D3
- measurement notes: BLI exp 2, dissoc pH 7.4
property: koff (s⁻¹)
Give bare numbers, in s⁻¹.

# binder, unit string, measured value
measured = [
    ("anti-CI-M6PR VHH6 (VHH, His6-tagged; made in E. coli) VHH: QVQLQESGGGLVQAGGSLRLSCAVSGSISSIGGMGWFRQAPGKQREFVAVILNNSGMTSYADSVKGRFTISRGNSKNTMYLQMNSLKPEDTAVYYCNYSGYWGQGTQVTVSS", "s⁻¹", 0.00352),
]

Now consider a different binder.
Could you tell me which koff is on file for anti-CI-M6PR VHH3 (VHH, His6-tagged; made in Pichia pastoris) VHH: QVQLQESGGGLVQPGGSLRLSCAAFGLNFKNFDMIWFRQAPGEERDIVAAISSSSSTIWYEDSVKGRFTISRDNAKNTVYLQMNSLKPEDTAVYYCAAALTSWRRPDYWGQGTQVTVSS ? 0.000345

Source of measurements: patent US20250263490A1
